# key: entry, value: Kd
experimental target: human recombinant CA VA (Homo sapiens)
Sequence (P35218 39-305): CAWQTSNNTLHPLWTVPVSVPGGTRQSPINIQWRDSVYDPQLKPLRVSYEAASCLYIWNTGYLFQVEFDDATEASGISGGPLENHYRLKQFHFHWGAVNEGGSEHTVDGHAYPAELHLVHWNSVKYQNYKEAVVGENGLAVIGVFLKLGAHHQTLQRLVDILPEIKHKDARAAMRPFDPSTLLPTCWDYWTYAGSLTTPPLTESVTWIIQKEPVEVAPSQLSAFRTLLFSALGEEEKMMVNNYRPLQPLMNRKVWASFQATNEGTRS
run description: Fluorescent thermal shift assay (FTSA), binding to CA VA
condition: Table 1; FTSA at 37° C. and pH 7.0; read-out: Dissociation constants, CA VA
property label: Kd (nM)

>>> value("Cc1cc2ncn(CC(=O)c3cc(S(N)(=O)=O)c(Cl)cc3Cl)c2cc1C")
5
>>> value("Cc1cc2ncn(CC(=O)c3ccc(Cl)c(S(N)(=O)=O)c3)c2cc1C")
0.8
>>> value("NS(=O)(=O)c1cc(C(=O)Cn2cnc3ccccc32)ccc1Cl")
0.3
>>> value("NS(=O)(=O)c1cc(C(=O)Cn2cnc3ccccc32)c(Cl)cc1Cl")
2

---

experimental target: human recombinant CA II (Homo sapiens, UniProt P00918)
run description: Fluorescent thermal shift assay (FTSA), binding to CA II
condition: Table 3; FTSA at 37° C., pH 7.0; read-out: Dissociation constants, CA II
# key: entry, value: Kd
property label: Kd (nM)

>>> value("COC(=O)c1cc(S(N)(=O)=O)c(Cl)cc1SC1CCCCC1 [Compound 14b]")
250
>>> value("COC(=O)c1cc(S(N)(=O)=O)c(Cl)cc1SCCc1ccccc1 [Compound 14d]")
170
>>> value("COC(=O)c1cc(S(N)(=O)=O)c(Cl)cc1SCc1ccccc1 [Compound 14c]")
110

---

experimental target: human recombinant CA VI (Homo sapiens)
Sequence (P23280 18-308): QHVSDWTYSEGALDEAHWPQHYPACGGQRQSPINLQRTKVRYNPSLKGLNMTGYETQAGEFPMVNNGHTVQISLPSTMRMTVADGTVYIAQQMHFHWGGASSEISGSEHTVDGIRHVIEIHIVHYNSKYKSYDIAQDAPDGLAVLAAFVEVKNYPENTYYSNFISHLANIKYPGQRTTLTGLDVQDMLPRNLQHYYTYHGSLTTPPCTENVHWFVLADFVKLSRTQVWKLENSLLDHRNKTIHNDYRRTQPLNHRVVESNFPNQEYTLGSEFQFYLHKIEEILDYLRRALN
run description: Fluorescent thermal shift assay (FTSA), binding to CA VI
condition: Table 1; FTSA at 37° C. and pH 7.0; read-out: Dissociation constants, CA VI
pKd: −log10 of the molar value.
property label: pKd

>>> value("NS(=O)(=O)c1cc(C(=O)Cn2cnc3ccccc32)ccc1Cl")
6.15

---

experimental target: human recombinant CA XIV (Homo sapiens, UniProt Q9ULX7)
Sequence (Q9ULX7 16-337): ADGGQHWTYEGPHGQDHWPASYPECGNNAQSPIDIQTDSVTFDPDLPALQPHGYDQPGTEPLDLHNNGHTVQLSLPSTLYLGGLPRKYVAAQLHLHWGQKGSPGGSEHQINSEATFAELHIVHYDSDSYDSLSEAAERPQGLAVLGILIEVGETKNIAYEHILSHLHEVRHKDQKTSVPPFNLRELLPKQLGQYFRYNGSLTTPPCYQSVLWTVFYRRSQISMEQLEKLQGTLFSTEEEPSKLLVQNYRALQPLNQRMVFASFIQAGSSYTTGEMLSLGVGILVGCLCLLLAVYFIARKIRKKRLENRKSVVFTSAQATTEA
run description: Fluorescent thermal shift assay (FTSA), binding to CA XIV
condition: Table 1; FTSA at 37° C. and pH 7.0; read-out: Dissociation constants, CA XIV
# key: entry, value: Kd
property label: Kd (nM)

>>> value("Cc1cc2ncn(CC(=O)c3cc(S(N)(=O)=O)c(Cl)cc3Cl)c2cc1C")
300
>>> value("Cc1cc2ncn(CC(=O)c3ccc(Cl)c(S(N)(=O)=O)c3)c2cc1C")
50
>>> value("NS(=O)(=O)c1cc(C(=O)Cn2cnc3ccccc32)ccc1Cl")
50
>>> value("NS(=O)(=O)c1cc(C(=O)Cn2cnc3ccccc32)c(Cl)cc1Cl")
20

---

experimental target: human recombinant CA IX (Homo sapiens, UniProt Q16790)
run description: Fluorescent thermal shift assay (FTSA), binding to CA IX
condition: Table 1; FTSA at 37° C. and pH 7.0; read-out: Dissociation constants, CA IX
pKd: −log10 of the molar value.
property label: pKd

>>> value("Cc1cc2ncn(CC(=O)c3ccc(Cl)c(S(N)(=O)=O)c3)c2cc1C")
6.22
>>> value("NS(=O)(=O)c1cc(C(=O)Cn2cnc3ccccc32)c(Cl)cc1Cl")
6.40

---

# key: entry, value: pKd
experimental target: human recombinant CA XIII (Homo sapiens, UniProt Q8N1Q1)
Sequence (Q8N1Q1 whole entry): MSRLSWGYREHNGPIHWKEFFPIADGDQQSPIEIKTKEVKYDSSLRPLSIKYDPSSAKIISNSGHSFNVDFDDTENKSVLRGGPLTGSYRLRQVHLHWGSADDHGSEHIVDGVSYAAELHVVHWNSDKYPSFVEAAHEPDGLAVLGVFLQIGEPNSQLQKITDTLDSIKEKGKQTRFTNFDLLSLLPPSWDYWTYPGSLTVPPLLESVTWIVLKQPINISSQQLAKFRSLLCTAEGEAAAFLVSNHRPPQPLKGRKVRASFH
run description: Fluorescent thermal shift assay (FTSA), binding to CA XIII
condition: Table 1; FTSA at 37° C. and pH 7.0; read-out: Dissociation constants, CA XIII
pKd: −log10 of the molar value.
property label: pKd

>>> value("NS(=O)(=O)c1cc(C(=O)Cn2cnc3ccccc32)ccc1Cl")
6.10
>>> value("NS(=O)(=O)c1cc(C(=O)Cn2cnc3ccccc32)c(Cl)cc1Cl")
6.15
>>> value("Cc1cc2ncn(CC(=O)c3ccc(Cl)c(S(N)(=O)=O)c3)c2cc1C")
6.10

---

experimental target: human recombinant CA III (Homo sapiens, UniProt P07451)
Sequence (P07451 whole entry): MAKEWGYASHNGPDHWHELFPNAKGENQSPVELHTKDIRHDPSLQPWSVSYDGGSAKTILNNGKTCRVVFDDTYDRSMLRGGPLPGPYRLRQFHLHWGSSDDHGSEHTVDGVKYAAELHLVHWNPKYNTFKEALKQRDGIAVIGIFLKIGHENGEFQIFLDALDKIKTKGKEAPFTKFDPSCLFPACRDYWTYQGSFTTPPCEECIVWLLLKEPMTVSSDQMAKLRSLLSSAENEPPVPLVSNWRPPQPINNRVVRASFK
run description: Fluorescent thermal shift assay (FTSA), binding to CA III
condition: Table 1; FTSA at 37° C. and pH 7.0; read-out: Dissociation constants, CA III
pKd: −log10 of the molar value.
property label: pKd

>>> value("NS(=O)(=O)c1cc(C(=O)Cn2cnc3ccccc32)ccc1Cl")
"< 3.70"

---

experimental target: human recombinant CA IV (Homo sapiens)
Sequence (P22748 19-284): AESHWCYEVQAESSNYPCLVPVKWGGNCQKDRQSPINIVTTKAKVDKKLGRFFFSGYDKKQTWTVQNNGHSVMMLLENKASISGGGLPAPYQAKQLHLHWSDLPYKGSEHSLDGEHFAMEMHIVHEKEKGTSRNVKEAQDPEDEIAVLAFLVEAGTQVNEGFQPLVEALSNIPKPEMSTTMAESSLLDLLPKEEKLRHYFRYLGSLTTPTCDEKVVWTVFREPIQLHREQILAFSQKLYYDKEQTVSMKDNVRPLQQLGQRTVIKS
run description: Fluorescent thermal shift assay (FTSA), binding to CA IV
condition: Table 1; FTSA at 37° C. and pH 7.0; read-out: Dissociation constants, CA IV
pKd: −log10 of the molar value.
property label: pKd

>>> value("NS(=O)(=O)c1cc(C(=O)Cn2cnc3ccccc32)ccc1Cl")
6.22

---

experimental target: human recombinant CA I (Homo sapiens)
Sequence (P00915 whole entry): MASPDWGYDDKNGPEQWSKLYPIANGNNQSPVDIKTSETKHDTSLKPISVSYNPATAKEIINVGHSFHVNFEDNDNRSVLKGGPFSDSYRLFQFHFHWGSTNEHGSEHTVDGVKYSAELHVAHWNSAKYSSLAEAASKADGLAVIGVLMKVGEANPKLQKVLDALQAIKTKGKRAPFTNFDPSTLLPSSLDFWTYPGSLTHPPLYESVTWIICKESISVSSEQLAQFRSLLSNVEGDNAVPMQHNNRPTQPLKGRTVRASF
run description: Fluorescent thermal shift assay (FTSA), binding to CA I
condition: Table 3; FTSA at 37° C., pH 7.0; read-out: Dissociation constants, CA I
property label: Kd (µM)

>>> value("COC(=O)c1cc(S(N)(=O)=O)c(Cl)cc1SC1CCCCC1 [Compound 14b]")
17
>>> value("COC(=O)c1cc(S(N)(=O)=O)c(Cl)cc1SCCc1ccccc1 [Compound 14d]")
13
>>> value("COC(=O)c1cc(S(N)(=O)=O)c(Cl)cc1SCc1ccccc1 [Compound 14c]")
6.9
>>> value("COC(=O)c1cc(S(N)(=O)=O)c(Cl)cc1Sc1ccccc1 [Compound 14a]")
10

---

experimental target: human recombinant CA XII (Homo sapiens, UniProt O43570)
Sequence (O43570 25-354): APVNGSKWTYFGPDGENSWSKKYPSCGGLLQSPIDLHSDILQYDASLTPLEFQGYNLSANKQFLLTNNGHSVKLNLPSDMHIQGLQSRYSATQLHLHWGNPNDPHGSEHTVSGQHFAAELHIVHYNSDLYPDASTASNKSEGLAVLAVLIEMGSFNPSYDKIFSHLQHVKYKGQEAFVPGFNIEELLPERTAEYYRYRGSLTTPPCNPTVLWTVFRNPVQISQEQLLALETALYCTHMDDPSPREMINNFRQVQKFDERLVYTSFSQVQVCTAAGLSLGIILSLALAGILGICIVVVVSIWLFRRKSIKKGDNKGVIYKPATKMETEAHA
run description: Fluorescent thermal shift assay (FTSA), binding to CA XII
condition: Table 3; FTSA at 37° C., pH 7.0; read-out: Dissociation constants, CA XII
# key: entry, value: Kd
property label: Kd

>>> value("COC(=O)c1cc(S(N)(=O)=O)c(Cl)cc1Sc1ccccc1 [Compound 14a]")
"6.7 nM"
>>> value("COC(=O)c1cc(S(N)(=O)=O)c(Cl)cc1SCCc1ccccc1 [Compound 14d]")
"53 nM"
>>> value("COC(=O)c1cc(S(N)(=O)=O)c(Cl)cc1SC1CCCCC1 [Compound 14b]")
"33 nM"
>>> value("COC(=O)c1cc(S(N)(=O)=O)c(Cl)cc1SCc1ccccc1 [Compound 14c]")
"22 nM"
